Molecular target: MC5-R (Homo sapiens)
Test: Competitive inhibition binding assay, 125I-NDP-α-MSH, MC5-R
Set-up: expressed in transfected cells
Protocol: The competitive inhibition binding assay was conducted using membranes prepared from hMC3-R, hMC4-R, hMC5-R, and B-16 mouse melanoma cells (containing MC1-R) using 0.4 nM ^125I-NDP-α-MSH (New England Nuclear, Boston, Mass., USA) in 50 mM HEPES buffer containing 1 mM MgCl2, 2 mM CaCl2, and 5 mM KCl, at pH 7.2. […]
measurement.type: inhibition at 1 µM (%)
Respond numerically; units are % and should not be typed.

# compound, measure.unit, inhibition at 1 µM
records = [
    ("N=C(N)NCCCC1C(=O)N(CCc2c[nH]c3ccccc23)CCN1C(=O)C(Cc1ccc(Cl)cc1)NC(=O)C1Cc2ccccc2CN1 (stereo not drawn) [Example 14]", "%", 89),
    ("NC(COCc1ccccc1)C(=O)NC(Cc1ccc(Cl)cc1Cl)C(=O)N1CCN(CCc2ccc3ccccc3c2)C(=O)C1CCCNC1=NCCN1 (stereo not drawn) [Example 48]", "%", 75),
]

Next:
QUERY: Please give measured inhibition at 1 µM of the following entry: N=C(N)NCCC[C@H]1C(=O)N2C(CC[C@@H]2COc2ccc3ccccc3c2)N1C(=O)[C@@H](Cc1ccc(Cl)cc1Cl)NC(=O)[C@@H]1CC[C@H](c2ccccc2)N1 (stereo partly drawn) [Example 115]
RESULT: 86

----------
Reported Inhibition at 1 μM MC5-R by item:
biological target: MC5-R (Homo sapiens, UniProt P33032); assay: Competitive inhibition binding assay, 125I-NDP-α-MSH, MC5-R; design: expressed in transfected cells; settings: 1 μM compound; inhibition of 125I-NDP-α-MSH binding; mean of triplicates; results less than 0% reported as 0%
Sequence (P33032 whole entry): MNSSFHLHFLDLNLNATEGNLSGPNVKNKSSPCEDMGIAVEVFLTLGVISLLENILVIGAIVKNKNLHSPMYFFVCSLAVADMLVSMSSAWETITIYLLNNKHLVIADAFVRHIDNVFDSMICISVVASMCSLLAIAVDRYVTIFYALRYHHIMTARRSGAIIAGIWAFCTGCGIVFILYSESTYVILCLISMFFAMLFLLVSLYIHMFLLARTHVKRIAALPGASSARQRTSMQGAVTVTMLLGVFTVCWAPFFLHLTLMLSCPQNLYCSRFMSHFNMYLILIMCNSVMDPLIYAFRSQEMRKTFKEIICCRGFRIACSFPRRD
Respond numerically; units are % and should not be typed.

# molecule, measurement.type, measure.unit, quantitative.readout
records = [
    ("NCCCNC(=O)[C@@H]1C[C@@H](OCc2ccccc2)CN1C(=O)[C@@H](Cc1ccccc1)NC(=O)[C@@H](N)Cc1ccc(-c2ccccc2)cc1", "Inhibition at 1 μM MC5-R", "%", 25),
]

QUERY: Please give measured Inhibition at 1 μM MC5-R of the following entry: NCCCCCCC(=O)N[C@@H](COCc1ccccc1)C(=O)N[C@H](Cc1ccc(Cl)cc1)C(=O)N1C2CC[C@H](COc3ccc4c(c3)CCCC4)N2C(=O)[C@@H]1CCCCN (stereo partly drawn)
RESULT: 84

QUERY: Please give measured Inhibition at 1 μM MC5-R of the following entry: NCCC[C@H]1C(=O)N(CCc2ccc3ccccc3c2)CCN1C(=O)[C@@H](Cc1ccc(Cl)cc1Cl)NC(=O)[C@@H](N)COCc1ccccc1
RESULT: 63

QUERY: Please give measured Inhibition at 1 μM MC5-R of the following entry: CCNC(=N)NCCC[C@H]1C(=O)N(CCc2ccc3ccccc3c2)CCN1C(=O)[C@H](N)Cc1ccc(Cl)cc1Cl
RESULT: 24

QUERY: Please give measured Inhibition at 1 μM MC5-R of the following entry: [2H]N1CCCC1C(=O)NC(Cc1ccccc1)C(=O)N1CC(OCc2ccccc2)CC1C(=O)NCCCN (stereo not drawn)
RESULT: 5

QUERY: Please give measured Inhibition at 1 μM MC5-R of the following entry: N=C(N)NCCC[C@H]1C(=O)N(CCc2ccc3ccccc3c2)CCN1C(=O)[C@H](N)Cc1ccccc1Cl
RESULT: 5
